Each recorded value in this set is attributed to patent US7345026B2.

system: peptide-loaded HHD-transfected RMA-S cells; design: species or system HHD mice; settings: mouse, in vivo
RECORDED METRIC: CTL response against the epitope after polyepitope immunization (in words)

KTWGQYWQV [gp100.154] :: Strong responses
VLPDVFIRC (listed as Homo sapiens) [NA17-A.nt38] :: Strong responses
